recorded.metric: melting point

Some solved cases for reference:
>>> assay_result("CC1COc2c(N3CCN(C)CC3)c(F)cc3c(=O)c(C(=O)NN=C4C(=O)Nc5ccccc54)cn1c23 (stereo not drawn)")
"> 300 °C"
>>> assay_result("CC1COc2c(N3CCN(C)CC3)c(F)cc3c(=O)c(C(=O)NN=Cc4ccc(F)cc4)cn1c23 (stereo not drawn)")
"266 to 268 °C"
>>> assay_result("CC1COc2c(N3CCN(C)CC3)c(F)cc3c(=O)c(C(=O)N4CCOCC4)cn1c23 (stereo not drawn) [Compound 13b]")
"235 to 237 °C"
>>> assay_result("CC1COc2c(N3CCN(C)CC3)c(F)cc3c(=O)c(C(=O)N4CCN(C)CC4)cn1c23 (stereo not drawn) [Compound 13c]")
"239 to 241 °C"
>>> assay_result("CC1COc2c(N3CCN(C)CC3)c(F)cc3c(=O)c(C(=O)N4NC(=O)CC4=N)cn1c23 (stereo not drawn)")
"101 to 103 °C"
>>> assay_result("CC1COc2c(N3CCN(C)CC3)c(F)cc3c(=O)c(C(=O)NN4C(=O)c5ccccc5C4=O)cn1c23 (stereo not drawn)")
"138 to 140 °C"
>>> assay_result("CC1COc2c(N3CCN(C)CC3)c(F)cc3c(=O)c(C(=O)NN=C4C(=O)Nc5ccc(Br)cc54)cn1c23 (stereo not drawn)")
"> 300 °C"
>>> assay_result("CC1COc2c(N3CCN(C)CC3)c(F)cc3c(=O)c(C(=O)NNC(N)=S)cn1c23 (stereo not drawn)")
"> 300 °C"

# evaluate next
**Query** Reported melting point, compound CC1COc2c(N3CCN(C)CC3)c(F)cc3c(=O)c(C(=O)N4CCCCC4)cn1c23 (stereo not drawn) [Compound 13a] : ____
**Result** 238 to 240 °C

---

- Test system: Hep3B cells
- assay: Annexin V-FITC/propidium iodide apoptosis assay
- measurement.setup: apoptosis and necrosis total, treated at IC50
recorded.metric: Total % (%)
Kindly answer with a numeric value in %, unit omitted.

Some solved cases for reference:
>>> assay_result("COc1ccc(C=NNC(=O)c2cn3c4c(c(N5CCN(C)CC5)c(F)cc4c2=O)OCC3C)cc1 (stereo not shown)")
32.91
>>> assay_result("CCOC(=O)CC(C)=NNC(=O)c1cn2c3c(c(N4CCN(C)CC4)c(F)cc3c1=O)OCC2C (stereo not shown)")
38.11
>>> assay_result("C[C@H]1COc2c(N3CCN(C)CC3)c(F)cc3c(=O)c(C(=O)O)cn1c23 [Levofloxacin, reference compound]")
34.62

# evaluate next
**Query** Reported Total %, compound COc1cc([C@@H]2c3cc4c(cc3[C@@H](O[C@@H]3O[C@@H]5CO[C@@H](C)O[C@H]5[C@H](O)[C@H]3O)[C@H]3COC(=O)[C@H]23)OCO4)cc(OC)c1O [Etoposide, reference compound] : ____
**Result** 27.09

---

- system.under.test: UniProtKB Q02880
- Sequence (Q02880 whole entry): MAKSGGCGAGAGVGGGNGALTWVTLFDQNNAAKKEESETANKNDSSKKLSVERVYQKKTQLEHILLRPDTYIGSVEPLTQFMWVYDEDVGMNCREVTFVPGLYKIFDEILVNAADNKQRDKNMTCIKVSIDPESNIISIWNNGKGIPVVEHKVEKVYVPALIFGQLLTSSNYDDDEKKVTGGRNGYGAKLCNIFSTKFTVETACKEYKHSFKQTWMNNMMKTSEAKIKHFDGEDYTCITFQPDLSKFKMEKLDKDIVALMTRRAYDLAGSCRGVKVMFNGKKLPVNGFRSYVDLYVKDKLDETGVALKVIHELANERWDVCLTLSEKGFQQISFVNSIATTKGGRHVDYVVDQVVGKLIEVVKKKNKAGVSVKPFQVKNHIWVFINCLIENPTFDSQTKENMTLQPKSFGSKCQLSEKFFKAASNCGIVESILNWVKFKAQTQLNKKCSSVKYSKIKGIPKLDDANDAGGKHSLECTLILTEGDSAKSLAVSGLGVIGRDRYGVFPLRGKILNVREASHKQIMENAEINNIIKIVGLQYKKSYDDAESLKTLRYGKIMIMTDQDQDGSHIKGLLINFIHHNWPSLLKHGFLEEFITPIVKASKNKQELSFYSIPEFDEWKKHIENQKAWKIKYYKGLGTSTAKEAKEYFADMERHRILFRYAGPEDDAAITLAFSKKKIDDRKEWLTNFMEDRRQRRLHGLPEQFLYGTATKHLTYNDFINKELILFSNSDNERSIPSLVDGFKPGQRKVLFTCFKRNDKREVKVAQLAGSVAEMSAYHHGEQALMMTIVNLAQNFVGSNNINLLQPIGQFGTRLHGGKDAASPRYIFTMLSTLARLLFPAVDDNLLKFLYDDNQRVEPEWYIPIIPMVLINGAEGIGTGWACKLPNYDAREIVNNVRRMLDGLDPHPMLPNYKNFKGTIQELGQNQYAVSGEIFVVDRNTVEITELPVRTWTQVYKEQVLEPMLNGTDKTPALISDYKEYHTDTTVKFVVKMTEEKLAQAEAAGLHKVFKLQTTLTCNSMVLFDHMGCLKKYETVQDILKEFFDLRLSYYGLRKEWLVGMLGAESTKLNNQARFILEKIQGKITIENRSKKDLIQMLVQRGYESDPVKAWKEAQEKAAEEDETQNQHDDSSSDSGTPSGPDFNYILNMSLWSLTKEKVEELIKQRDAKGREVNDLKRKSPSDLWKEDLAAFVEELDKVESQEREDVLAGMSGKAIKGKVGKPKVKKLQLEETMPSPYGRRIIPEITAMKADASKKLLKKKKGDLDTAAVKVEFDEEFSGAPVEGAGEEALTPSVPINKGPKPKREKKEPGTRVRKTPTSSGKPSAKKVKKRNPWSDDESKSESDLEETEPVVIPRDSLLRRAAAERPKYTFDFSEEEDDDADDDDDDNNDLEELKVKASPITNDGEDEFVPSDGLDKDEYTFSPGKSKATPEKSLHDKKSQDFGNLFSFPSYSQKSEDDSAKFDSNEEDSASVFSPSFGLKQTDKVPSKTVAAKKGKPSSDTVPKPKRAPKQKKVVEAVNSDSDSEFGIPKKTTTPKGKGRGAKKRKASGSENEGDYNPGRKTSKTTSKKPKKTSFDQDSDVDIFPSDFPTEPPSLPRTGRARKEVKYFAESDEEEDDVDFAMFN
- assay: Topo2β polymerase inhibition assay (ELISA), L-SR
- Format: cell-based
- Set-up: endogenous in cells; host or cells: MCF-7 (A4), Hep3B (A5), L-SR (A6) human cancer cell lines
- measurement.setup: against L-SR cell line
- Description: This assay was employed to predict the inhibitory effects of novel compounds on Topo2β. […] The melting points were determined using a Stuart apparatus, and the values given are uncorrected. […] Chemical shifts were recorded in ppm on a δ scale. […] C, H, and N analysis values were accepted within the range of ± 0.4 of the calculated percentages. […] This assay employs a quantitative sandwich enzyme immunoassay technique. […] The color development was stopped, and the intensity of the color was measured. […]
recorded.metric: Topo2β% inhibition (%)

>>> assay_result("C[C@H]1COc2c(N3CCN(C)CC3)c(F)cc3c(=O)c(C(=O)O)cn1c23 [Levofloxacin, reference compound]")
70.40
>>> assay_result("CCOC(=O)CC(C)=NNC(=O)c1cn2c3c(c(N4CCN(C)CC4)c(F)cc3c1=O)OCC2C (stereo not shown)")
80.29
>>> assay_result("CC1COc2c(N3CCN(C)CC3)c(F)cc3c(=O)c(C(=O)N4CCCCC4)cn1c23 (stereo not shown) [Compound 13a]")
69.38
>>> assay_result("COc1cc([C@@H]2c3cc4c(cc3[C@@H](O[C@@H]3O[C@@H]5CO[C@@H](C)O[C@H]5[C@H](O)[C@H]3O)[C@H]3COC(=O)[C@H]23)OCO4)cc(OC)c1O [Etoposide, reference compound]")
69.85
